Source: the RepoRT retention time repository

# LC retention time per entry
test: HILIC, Waters ACQUITY UPLC BEH Amide, 100 × 2.1 mm, 1.7 µm; A: water + 0.125% formic acid + 10 mM ammonium formate; B: 5% water + 95% acetonitrile + 0.125% formic acid + 10 mM ammonium formate; gradient (min/%B) 0/100 2/100 7.7/70 9.5/40 10.25/30 12.75/100 17/100; conditions: stereoisomer not certain
Give the value, in units of min, as a plain number.

Example entries and their recorded answers appear below.
[[record]]
molecule = "CC(=O)NCC1CN(c2ccc(N3CCOCC3)c(F)c2)C(=O)O1 (stereo not drawn) [Linezolide]"
observed_measurement = 1.15

[[record]]
molecule = "CCN1CCN(c2cc3c(cc2F)c(=O)c(C(=O)O)cn3C2CC2)CC1 [Enrofloxacin]"
observed_measurement = 3.31

[[record]]
molecule = "NC(CC(=O)O)C(=O)NC(Cc1ccccc1)C(=O)O (stereo not drawn) [Asp-Phe]"
observed_measurement = 8.14


Returns the measured LC retention time for the input molecule. Input: CC(C)CC(N)C(=O)O (stereo not drawn) [Leucine]
7.08

I'd like to know its LC retention time. The molecule in question is O=C(O)CCC(O)C(=O)O (stereo not drawn) [2-Hydroxyglutaric acid]
0.91

# lookup: LC retention time of NC(N)=NCCCC(=O)O [4-Guanidinobutyric acid]
7.72

I have this molecule here, O=C(O)CP(=O)(O)O [Phosphonoacetic acid] , and I need its recorded LC retention time.
9.73

State the recorded LC retention time for this entry: CCNC(C)Cc1ccc2c(c1)OCO2 (stereo not drawn) [3,4-Methylenedioxyethamphetamine]
2.94

Query: LC retention time; subject: Cc1c2oc3c(C)ccc(C(=O)NC4C(=O)NC(C(C)C)C(=O)N5CCCC5C(=O)N(C)CC(=O)N(C)C(C(C)C)C(=O)OC4C)c3nc-2c(C(=O)NC2C(=O)NC(C(C)C)C(=O)N3CCCC3C(=O)N(C)CC(=O)N(C)C(C(C)C)C(=O)OC2C)c(N)c1=O (stereo not drawn) [Actinomycin D]
1.03

So what does the record say about LC retention time for CCS(=O)(=O)CCn1c([N+](=O)[O-])cnc1C [Tinidazole] ?
1.04

Query: LC retention time; subject: COc1cc(C(=O)NC2CCCNC2)cc(OC)c1OC (stereo not drawn) [Troxipide]
5.04
